From: patent US10364245B2

- ASSAYED_TARGET: UniProt Q16539
- MEASUREMENT_DESCRIPTION: P38 alpha enzyme inhibition assay (Alphascreen kinase activity assay)
- PROTOCOL_CONDITIONS: 100 pM p38 alpha, 2 hours preincubation at 25° C., 250 μM ATP, ATF-2 fusion protein; read-out: p38α inhibition
pIC50: −log10 of the molar value.
RECORDED_ENDPOINT: pIC50

CC(C)(C)c1cc(NC(=O)N[C@H]2CC[C@@H](Oc3ccc4nnc(C5(C)COC5)n4c3)c3ccccc32)nc(C(=O)NCCN2CCOCC2)n1 [Example 98] = 8.00 to 9.00
COC(C)(C)c1nnc2ccc(O[C@@H]3CC[C@H](NC(=O)Nc4cc(C(C)(C)C)nc(C(=O)NCCN(C)C)n4)c4ccccc43)cn12 [Example 96] = 8.00 to 9.00

Determine its reported pIC50: COC1CN(CCNC(=O)c2nc(NC(=O)N[C@H]3CC[C@@H](Oc4ccc5nnc(C(C)(C)OC)n5c4)c4ccccc43)cc(C(C)(C)C)n2)C1 [Example 167]
8.00 to 9.00

Given the compound CN(C)[C@H]1CCCC[C@@H]1NC(=O)c1nc(NC(=O)N[C@H]2CC[C@@H](Oc3ccc4nnc(C(C)(C)C)n4c3)c3ccccc32)cc(C(C)(C)C)n1 [Example 165] , write its reported pIC50.
8.00 to 9.00

Query pIC50 for CN1CCC(NC(=O)c2nc(NC(=O)N[C@H]3CC[C@@H](Oc4ccc5nnc(C(C)(C)C)n5c4)c4ccccc43)cc(C(C)(C)C)n2)CC1 [Example 134]
8.00 to 9.00

Provide only the value of recorded pIC50 for CCN(CC)c1nnc2ccc(O[C@@H]3CC[C@H](NC(=O)Nc4cc(C(=O)NCCN(C)C)nc(C(C)(C)C)c4)c4ccccc43)cn12 [Example 10]
> 9.00

---

pIC50 listing for selected molecules.
- ASSAYED_TARGET: p38 alpha (Homo sapiens)
- Construct: purchased Invitrogen PV3304
- MEASUREMENT_DESCRIPTION: P38 alpha enzyme inhibition assay (Alphascreen kinase activity assay)
- Assay type: biochemical
- PROTOCOL_CONDITIONS: 100 pM p38 alpha, 2 hours preincubation at 25° C., 250 μM ATP, ATF-2 fusion protein; read-out: p38α inhibition
pIC50: −log10 of the molar value. Counter-ions that a name gives are not always drawn.

Known results for molecules:
COCC(C)(C)c1nnc2ccc(O[C@@H]3CC[C@H](NC(=O)Nc4cc(C(=O)NCC(C)(C)N(C)C)nc(C(C)(C)C)c4)c4ccccc43)cn12 [Example 196] = 8.00 to 9.00
CN(CCO)CCNC(=O)c1nc(NC(=O)N[C@H]2CC[C@@H](Oc3ccc4nnc([C@@H]5COCCN5C)n4c3)c3ccccc32)cc(C(C)(C)C)n1 [Example 215] = 8.00 to 9.00

Attention now turns to another entry.
Annotate the molecule CN1CCC[C@H]1c1nnc2ccc(O[C@@H]3CC[C@H](NC(=O)Nc4cc(C(C)(C)C)ncn4)c4ccccc43)cn12 [Example 46, Hydrochloride] with its measured pIC50.
> 9.00

---

- ASSAYED_TARGET: p38 alpha (Homo sapiens, UniProt Q16539)
- Sequence (Q16539 whole entry): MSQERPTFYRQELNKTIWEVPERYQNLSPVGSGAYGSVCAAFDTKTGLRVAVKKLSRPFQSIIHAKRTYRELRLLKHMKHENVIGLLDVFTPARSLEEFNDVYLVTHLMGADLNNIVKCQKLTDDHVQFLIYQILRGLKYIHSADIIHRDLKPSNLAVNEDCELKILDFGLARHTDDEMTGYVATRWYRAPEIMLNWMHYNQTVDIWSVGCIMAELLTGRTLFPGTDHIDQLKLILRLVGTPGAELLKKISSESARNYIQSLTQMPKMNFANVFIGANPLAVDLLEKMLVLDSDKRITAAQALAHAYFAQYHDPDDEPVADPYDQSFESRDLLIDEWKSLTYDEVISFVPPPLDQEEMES
- MEASUREMENT_DESCRIPTION: P38 alpha enzyme inhibition assay (Alphascreen kinase activity assay)
- PROTOCOL_CONDITIONS: 100 pM p38 alpha, 2 hours preincubation at 25° C., 250 μM ATP, ATF-2 fusion protein; read-out: p38α inhibition
pIC50: −log10 of the molar value.
RECORDED_ENDPOINT: pIC50

COCC(C)(C)c1nnc2ccc(O[C@@H]3CC[C@H](NC(=O)Nc4cc(C(C)(C)C)nc(C(=O)NCCN5CC(OC)C5)n4)c4ccccc43)cn12 [Example 166] = > 9.00
CC(C)(C)c1cc(NC(=O)N[C@H]2CC[C@@H](Oc3ccc4nnc(C(C)(C)C)n4c3)c3ccccc32)nc(C(=O)NCCN2CCC(O)CC2)n1 [Example 108] = > 9.00
CN(C)C1(CNC(=O)c2nc(NC(=O)N[C@H]3CC[C@@H](Oc4ccc5nnc(C(C)(C)C)n5c4)c4ccccc43)cc(C(C)(C)C)n2)CC1 [Example 159] = 8.00 to 9.00
CN(CCO)CCNC(=O)c1nc(NC(=O)N[C@H]2CC[C@@H](Oc3ccc4nnc(C5(C)CCCC5)n4c3)c3ccccc32)cc(C(C)(C)C)n1 [Example 181] = > 9.00
CCC(CC)(CNC(=O)c1nc(NC(=O)N[C@H]2CC[C@@H](Oc3ccc4nnc(C(C)(C)C)n4c3)c3ccccc32)cc(C(C)(C)C)n1)N(C)C [Example 168] = 8.00 to 9.00

// next entry
Provide pIC50 value for the following compound: COCCN(C)CCNC(=O)c1nc(NC(=O)N[C@H]2CC[C@@H](Oc3ccc4nnc(C5CCCC5)n4c3)c3ccccc32)cc(C(C)(C)C)n1 [Example 76]
8.00 to 9.00

---

- ASSAYED_TARGET: UniProt:Q16539
- MEASUREMENT_DESCRIPTION: P38 alpha enzyme inhibition assay (Alphascreen kinase activity assay)
- PROTOCOL_CONDITIONS: 100 pM p38 alpha, 2 hours preincubation at 25° C., 250 μM ATP, ATF-2 fusion protein; read-out: p38α inhibition
RECORDED_ENDPOINT: IC50

Return the recorded IC50 value; entry: CC(C)Cc1nnc2ccc(O[C@@H]3CC[C@H](NC(=O)Nc4cc(C(C)(C)C)nc(C(=O)NCCN(C)C)n4)c4ccccc43)cn12
1 to 10 nM

For the compound CN1CCN(C(=O)c2nc(NC(=O)N[C@H]3CC[C@@H](Oc4ccc5nnc(C(C)(C)C)n5c4)c4ccccc43)cc(C(C)(C)C)n2)CC1 , give its measured IC50 value.
< 1 nM

Given COCC(C)(C)c1nnc2ccc(O[C@@H]3CC[C@H](NC(=O)Nc4cc(C(C)(C)C)nc(C(=O)NCCN5CCOCC5)n4)c4ccccc43)cn12 , respond with its IC50.
< 1 nM

---

IC50 values for the compounds below.
- ASSAYED_TARGET: p38 alpha (Homo sapiens)
- MEASUREMENT_DESCRIPTION: P38 alpha enzyme inhibition assay (Alphascreen kinase activity assay)
- PROTOCOL_CONDITIONS: 100 pM p38 alpha, 2 hours preincubation at 25° C., 250 μM ATP, ATF-2 fusion protein; read-out: p38α inhibition

CC(C)Cc1nnc2ccc(O[C@@H]3CC[C@H](NC(=O)Nc4cc(C(C)(C)C)nc(C(=O)NCCO)n4)c4ccccc43)cn12 [Example 60] = < 1 nM

Specify the recorded IC50 for COC1CN(C(C)(C)CNC(=O)c2nc(NC(=O)N[C@H]3CC[C@@H](Oc4ccc5nnc(C(C)(C)C)n5c4)c4ccccc43)cc(C(C)(C)C)n2)C1 [Example 170] , system: p38 alpha (Homo sapiens).
1 to 10 nM

Output reported IC50 of the compound CCC(CC)c1nnc2ccc(O[C@@H]3CC[C@H](NC(=O)Nc4cc(C(C)(C)C)nc(C(=O)NC5CN(C)C5)n4)c4ccccc43)cn12 [Example 84] on p38 alpha (Homo sapiens).
< 1 nM

---

- ASSAYED_TARGET: p38 alpha (Homo sapiens, UniProt Q16539)
- MEASUREMENT_DESCRIPTION: P38 alpha enzyme inhibition assay (Alphascreen kinase activity assay)
- PROTOCOL_CONDITIONS: 100 pM p38 alpha, 2 hours preincubation at 25° C., 250 μM ATP, ATF-2 fusion protein; read-out: p38α inhibition
pIC50: −log10 of the molar value.
Quick list: pIC50 per entry.

Known results for molecules:
COC1CN(CCNC(=O)c2nc(NC(=O)N[C@H]3CC[C@@H](Oc4ccc5nnc(C(C)(C)C)n5c4)c4ccccc43)cc(C(C)(C)C)n2)C1 = 8.00 to 9.00
CN1CCC[C@@]1(C)c1nnc2ccc(O[C@@H]3CC[C@H](NC(=O)Nc4cc(C(=O)NCCO)nc(C(C)(C)C)c4)c4ccccc43)cn12 = 8.00 to 9.00
COC1CN(CCNC(=O)c2cc(NC(=O)N[C@H]3CC[C@@H](Oc4ccc5nnc(C(C)(C)C)n5c4)c4ccccc43)cc(C(C)(C)C)n2)C1 = 8.00 to 9.00
CN(C)CCNC(=O)c1cc(C(C)(C)C)cc(NC(=O)N[C@H]2CC[C@@H](Oc3ccc4nnc(C(C)(C)C)n4c3)c3ccccc32)n1 = > 9.00
CCC(C)(C)c1nnc2ccc(O[C@@H]3CC[C@H](NC(=O)Nc4cc(C(C)(C)C)nc(C(=O)NCCN(C)C)n4)c4ccccc43)cn12 = > 9.00

Fill in reported pIC50 for this entry: COCC(C)(C)c1nnc2ccc(O[C@@H]3CC[C@H](NC(=O)Nc4cc(C(C)(C)C)nc(C(=O)NCCN5CCCOCC5)n4)c4ccccc43)cn12
> 9.00
